Value source: paper doi:10.1101/2022.02.07.479474

# experimentalSystem: PBRM1 BD4 KRK (UniProt Q86U86 496-637, K511A;R512A;K513A)
# Sequence (Q86U86 496-637 K511A/R512A/K513A): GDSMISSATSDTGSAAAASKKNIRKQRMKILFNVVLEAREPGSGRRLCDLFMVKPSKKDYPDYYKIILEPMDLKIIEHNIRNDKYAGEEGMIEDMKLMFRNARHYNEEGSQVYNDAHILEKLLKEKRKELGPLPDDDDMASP
# testSummary: NMR
pKd: −log10 of the molar value.
readoutType: pKd

binder="GCGUAGACAGCUGUUCGCAGCUGUCUAUGC (structured_RNA) [dsRNAI]" readouttype=pKd numericresult=2.99
